system-under-test: recombinant human KLK5 (human) (UniProt Q9Y337)
Sequence (Q9Y337 67-293): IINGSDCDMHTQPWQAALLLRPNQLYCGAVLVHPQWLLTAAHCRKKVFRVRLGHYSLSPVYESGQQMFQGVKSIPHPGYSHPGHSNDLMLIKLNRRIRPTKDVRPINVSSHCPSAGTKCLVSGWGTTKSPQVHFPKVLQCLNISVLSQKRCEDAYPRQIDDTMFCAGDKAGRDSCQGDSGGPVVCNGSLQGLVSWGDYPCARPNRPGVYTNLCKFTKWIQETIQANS
procedure-text: pro-KLK7 coupled assay, 5 nM KLK5, 125 nM pro-KLK7, suc-LLVY-AMC
result-type: IC50 (read off the curve) (nM)
Numbers only, in nM.

| binder | IC50 (read off the curve) (nM) |
| --- | --- |
| 10C8 (antibody, V domains shown) VH: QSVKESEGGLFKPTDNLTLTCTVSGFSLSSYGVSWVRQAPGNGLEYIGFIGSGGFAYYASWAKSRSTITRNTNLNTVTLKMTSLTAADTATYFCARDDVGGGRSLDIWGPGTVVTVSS VL: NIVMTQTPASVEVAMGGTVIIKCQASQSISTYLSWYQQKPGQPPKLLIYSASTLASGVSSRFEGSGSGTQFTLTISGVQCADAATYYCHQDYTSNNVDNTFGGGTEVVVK | 1 |

*Q* Tell me the measured IC50 (read off the curve) of 9H3 (antibody, V domains shown) VH: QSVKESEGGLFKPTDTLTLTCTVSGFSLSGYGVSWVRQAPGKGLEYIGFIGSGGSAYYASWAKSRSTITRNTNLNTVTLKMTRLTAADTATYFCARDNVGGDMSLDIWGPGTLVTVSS VL: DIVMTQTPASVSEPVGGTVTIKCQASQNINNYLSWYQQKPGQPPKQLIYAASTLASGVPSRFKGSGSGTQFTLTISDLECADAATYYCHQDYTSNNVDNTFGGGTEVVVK , please.
*A* 1
